Target: Potassium voltage-gated channel subfamily KQT member 1 (Homo sapiens) (UniProt P51787)
Sequence (P51787 whole entry, looked up): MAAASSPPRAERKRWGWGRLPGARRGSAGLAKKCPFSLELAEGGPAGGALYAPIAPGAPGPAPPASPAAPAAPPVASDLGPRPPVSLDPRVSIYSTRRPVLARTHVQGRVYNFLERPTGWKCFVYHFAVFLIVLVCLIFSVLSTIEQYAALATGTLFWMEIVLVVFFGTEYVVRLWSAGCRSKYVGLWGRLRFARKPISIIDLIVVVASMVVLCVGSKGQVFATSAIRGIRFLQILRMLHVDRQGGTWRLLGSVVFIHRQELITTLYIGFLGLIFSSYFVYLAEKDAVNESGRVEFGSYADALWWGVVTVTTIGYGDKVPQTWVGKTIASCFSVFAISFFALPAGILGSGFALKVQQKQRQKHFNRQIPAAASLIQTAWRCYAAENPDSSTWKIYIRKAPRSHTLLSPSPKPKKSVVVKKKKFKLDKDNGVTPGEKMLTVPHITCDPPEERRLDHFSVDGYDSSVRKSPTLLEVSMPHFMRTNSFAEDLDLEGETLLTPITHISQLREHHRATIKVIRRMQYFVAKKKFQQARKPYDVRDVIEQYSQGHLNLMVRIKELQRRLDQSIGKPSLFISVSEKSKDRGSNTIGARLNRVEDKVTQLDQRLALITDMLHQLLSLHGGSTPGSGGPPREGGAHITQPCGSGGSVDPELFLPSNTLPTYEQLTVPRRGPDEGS
Assay: KCNQ1 potassium channel potentiators, confirmation, FluxOR thallium flux, CHO cells, duplicates (AID 493007)
Details: KCNQ1 cell line, FluxOR thallium flux fluorescence, at 10 µM, % of reference activator effect, buffer zero
Activity calls are given as the source filed them.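 How the source made its calls: active means potentiation averaged over duplicate wells exceeding buffer-only control mean by more than 3 SD; inactive means the rest.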
Can you answer with just one of these options? active, inactive

For orientation, consider the following solved cases.
• CCC1Oc2ccc(C)cc2N(CC(=O)N(Cc2ccc(C)o2)C2CC(C)(C)NC(C)(C)C2)C1=O (configuration not stated) = active
• Cc1nc(-c2ccc(NC(=O)Cc3ccccc3)cc2)cs1 = inactive
• COc1ccc(OC)c(NC(=O)C(=O)NNC(=O)C23CC4CC(CC(C4)C2)C3)c1 = active

Any idea what this test logged for O=C(NNc1ncc(C(F)(F)F)cc1Cl)c1ccc(Cl)c(Cl)c1 ?
inactive

Any idea what this test logged for O=C(Nc1ccccc1F)C1C2C=CC3(O2)C1C(=O)N(c1cccnc1)C3C(=O)NC1CCCCC1 (configuration not stated) ?
inactive

###

Molecular target: Short transient receptor potential channel 4 (Mus musculus) (UniProt Q9QUQ5)
Sequence (Q9QUQ5 whole entry, looked up): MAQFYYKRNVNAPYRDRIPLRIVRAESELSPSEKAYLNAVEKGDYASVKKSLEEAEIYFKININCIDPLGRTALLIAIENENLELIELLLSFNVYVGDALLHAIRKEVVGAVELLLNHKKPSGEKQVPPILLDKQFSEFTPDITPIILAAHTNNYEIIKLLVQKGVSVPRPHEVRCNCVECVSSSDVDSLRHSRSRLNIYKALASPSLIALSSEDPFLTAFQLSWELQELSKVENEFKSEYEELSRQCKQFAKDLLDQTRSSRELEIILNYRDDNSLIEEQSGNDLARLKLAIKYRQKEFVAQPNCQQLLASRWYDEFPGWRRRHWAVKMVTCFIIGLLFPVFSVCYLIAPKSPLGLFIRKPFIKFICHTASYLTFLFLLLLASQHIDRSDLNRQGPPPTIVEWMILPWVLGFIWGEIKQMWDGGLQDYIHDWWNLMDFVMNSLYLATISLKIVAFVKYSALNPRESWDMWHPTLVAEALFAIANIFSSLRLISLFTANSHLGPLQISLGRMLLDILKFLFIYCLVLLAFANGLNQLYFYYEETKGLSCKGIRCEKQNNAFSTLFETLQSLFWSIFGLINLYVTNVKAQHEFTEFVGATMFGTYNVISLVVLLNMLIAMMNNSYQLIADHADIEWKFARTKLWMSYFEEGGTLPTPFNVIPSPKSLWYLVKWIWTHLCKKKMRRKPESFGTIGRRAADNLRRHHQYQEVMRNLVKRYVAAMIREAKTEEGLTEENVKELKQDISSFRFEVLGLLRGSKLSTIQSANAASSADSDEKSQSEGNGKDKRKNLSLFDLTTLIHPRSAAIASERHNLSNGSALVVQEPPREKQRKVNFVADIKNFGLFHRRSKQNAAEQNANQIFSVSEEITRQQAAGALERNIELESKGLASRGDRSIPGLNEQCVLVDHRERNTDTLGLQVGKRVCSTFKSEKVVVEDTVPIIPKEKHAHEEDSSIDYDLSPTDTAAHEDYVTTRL
Assay: inhibitors of mouse TRPC4 channel, confirmation, cell-based, second round, Fluo4, HEK293 TRPC4beta/mu-opioid, 1 µM (AID 2637)
Conditions: Fluo4 calcium flux, DAMGO, at 1 µM
The source made the active and inactive calls.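 Rule for the calls: active = calcium signal ratio cut to more than 3 SD under the fully stimulated control mean yet still positive, in both repeats and the primary screen; inactive = the rest.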
Can you answer with just one of these options? active, inactive

- CN(C)C1(CNC(=O)CC(NC(=O)c2ccccc2Cl)c2ccccc2)CCCCC1 (stereo not given): active
- COc1ccc(/C=C/C(=O)Nc2ccccc2C(=O)NCC(c2ccc(OC)cc2)N(C)C)cc1 (stereo not given): active
- Cc1cc(C)cc(C(=O)N(CCc2ccccc2)C2=CC3CCC(C2)N3C)c1 (stereo not given): inactive
- CCN1CCN(c2ccc(S(=O)(=O)N3CCOCC3)cc2NC(=O)C(C)Oc2cccc(Cl)c2)CC1 (stereo not given): inactive
- Cc1ccccc1C(=O)Nc1c(C(=O)N(CCN(C)C)Cc2ccco2)oc2ccccc12: inactive
- CCOC(=O)C1(CC2CC2)CCN(Cc2ccc3cccc(F)c3n2)CC1: inactive

Any idea what this test logged for C=CCn1c(CCNC(=O)c2ccco2)nc2ccccc21 ?
inactive

Any idea what this test logged for CCCC(=O)N1CCc2cc(-c3nc(N)sc3C)ccc21 ?
inactive

Any idea what this test logged for CCc1nc(NCCc2ccccn2)c2nnn(Cc3ccccc3F)c2n1 ?
inactive

Any idea what this test logged for CN(C)/C=C1\C(=O)N(c2ccc([N+](=O)[O-])cc2)N=C1c1ccccc1 ?
inactive

###

Biological target: Potassium voltage-gated channel subfamily KQT member 1 (Homo sapiens) (UniProt P51787)
Assay: KCNQ1 potassium channel potentiators, confirmation, FluxOR thallium flux, CHO cells, duplicates (AID 493007)
Settings: KCNQ1 cell line, FluxOR thallium flux fluorescence, at 10 µM, % of reference activator effect, buffer zero
Activity calls are given as the source filed them.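 How the source made its calls: active means potentiation averaged over duplicate wells exceeding buffer-only control mean by more than 3 SD; inactive means the rest.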
Can you answer with just one of these options? active, inactive

For orientation, consider the following solved cases.
- CCc1nnc(NC(=O)CCC(=O)N2CCN(C3CCCCC3)CC2)s1: inactive
- COc1ccc(C(=O)NC(=S)N(Cc2ccccc2)Cc2ccccc2)cc1: active
- COc1ccc2c(CCNC(=O)CN3C(=O)c4ccccc4C3=O)c[nH]c2c1: inactive

Any idea what this test logged for CN1C(=O)c2ccc(NC(=O)c3c(F)c(F)c(F)c(F)c3F)cc2C1=O ?
active

Any idea what this test logged for CC(C)(C)NC(=O)CN(C(=O)CNC(=O)c1cccs1)c1ccc2c(c1)OCCO2 ?
inactive

Any idea what this test logged for S=c1nc2ccccc2c2nc(-c3ccccc3)[nH]n12 ?
inactive

Any idea what this test logged for COC(=O)c1ccc(COC(=O)c2ccccc2OC)cc1 ?
inactive

Any idea what this test logged for Cn1cnc([N+](=O)[O-])c1S(=O)(=O)c1cccc(Cl)c1 ?
inactive

Any idea what this test logged for CCOc1ccccc1C1c2[nH]c3ccccc3c2C[C@H]2C(=O)N(C3CC3)CC(=O)N12 (stereo partly specified) ?
inactive

Any idea what this test logged for COC(=O)c1ccc(COC(=O)c2ccccn2)cc1 ?
active

Any idea what this test logged for O=C1c2ccccc2NC(c2ccc(-c3cccc(Cl)c3)o2)N1O (stereo unspecified) ?
inactive
